FYI, the data here is from ChEMBL document CHEMBL5096186.

- protocol details: Elimination half life in Sprague-Dawley rat at 4 mg/kg, iv measured upto 24 hrs by LC-MS/MS analysis
- Format: ADME, organism-based
- study conditions: in vivo, read-out: beta t1/2 (converted)
reported metric: half-life (h)
Write the answer as a number in h, unit excluded.

# annotated cases, reported half-life shown
{"compound": "CCC(CN)=C1CN(c2nc(Oc3cnc(C)nc3)nc3[nH]c4c(NC)cc(F)cc4c23)C1", "half-life (h)": 3.7}
{"compound": "CCC(CO)=C1CN(c2nc(Oc3cnc(C)nc3)nc3[nH]c4c(NC)cc(F)c(F)c4c23)C1", "half-life (h)": 6.5}
{"compound": "CCCC(CN)=C1CN(c2nc(Oc3cnc(C)nc3)nc3[nH]c4c(NC)cc(F)cc4c23)C1", "half-life (h)": 4.7}
{"compound": "CCC(CN)=C1CN(c2nc(Oc3cnc(C(C)O)nc3)nc3[nH]c4c(NC)cc(F)cc4c23)C1 (stereo unspecified)", "half-life (h)": 2.7}
{"compound": "CNc1cc(F)cc2c1[nH]c1nc(Oc3cnc(C)nc3)nc(N3CC(=CC(C)N)C3)c12 (stereo unspecified)", "half-life (h)": 9}

Prompt: Consider the compound CNc1cc(F)cc2c1[nH]c1nc(Oc3cnc(C)nc3)nc(N3CC(=C(C)C(C)N)C3)c12 (racemic) . State its measured half-life.
Response: 5.7

---

- Test system: Escherichia coli
- protocol details: Antibacterial activity against ESBL-producing Escherichia coli ATCC 35218 strains 15 1 to 3 assessed as reduction in bacterial growth incubated for 18 to 20 hrs by CLSI based microdilution method
- Format: functional
- study conditions: time 18-20 hrs
reported metric: MIC

Consider the following illustrative entries.
{"compound": "CNc1cc(F)cc2c1[nH]c1nc(Oc3cnc(C)nc3)nc(N3CC(=C(F)CN)C3)c12", "observed": "0.25 µg/mL"}
{"compound": "CNc1cc(F)cc2c1[nH]c1nc(Oc3cnc(C)nc3)nc(N3CC(=C(C)CO)C3)c12", "observed": "> 64 µg/mL"}
{"compound": "CCC(CO)=C1CN(c2nc(Oc3cnc(C)nc3)nc3[nH]c4c(NC)cc(F)c(F)c4c23)C1", "observed": "0.25 µg/mL"}
{"compound": "CCC(CN)=C1CN(c2nc(NS(C)(=O)=O)nc3[nH]c4c(NC)cc(F)cc4c23)C1", "observed": "> 16 µg/mL"}
{"compound": "CCC(CN)=C1CN(c2nc(N)nc3[nH]c4c(NC)cc(F)cc4c23)C1", "observed": "4 µg/mL"}

Prompt: Please indicate recorded MIC of CNc1cc(F)cc2c1[nH]c1nc(Oc3cnc(C)nc3)nc(N3CC(=C(Cl)CN)C3)c12 measured with Escherichia coli.
Response: 1 µg/mL

Prompt: Report MIC from Escherichia coli testing of CCC(CN)=C1CN(c2nc(Oc3cnc(C)nc3)nc3[nH]c4c(NC)cc(F)c(F)c4c23)C1
Response: 64 µg/mL

Prompt: Report MIC under test system Escherichia coli for CNc1cc(F)cc2c1[nH]c1nc(Oc3cnc(C)nc3)nc(N3CC(=C(C)C(C)N)C3)c12 (racemic) .
Response: 0.5 µg/mL

Prompt: System Escherichia coli. Read-out MIC. Item C=CCC(CN)=C1CN(c2nc(Oc3cnc(C)nc3)nc3[nH]c4c(NC)cc(F)cc4c23)C1 . Report value.
Response: 0.125 µg/mL

Prompt: Give MIC only, for CNc1cc(F)cc2c1[nH]c1nc(Oc3cnc(C)nc3)nc(N3CC(=C(C)CN)C3)c12 , using Escherichia coli data.
Response: 2 µg/mL

Prompt: Would you please give the reported MIC of CNc1cc(F)cc2c1[nH]c1nc(Oc3cnc(C)nc3)nc(N3CC(=C(CO)C(C)C)C3)c12 with Escherichia coli?
Response: 0.5 µg/mL

Prompt: Quote Escherichia coli MIC for entry CNc1cc(F)cc2c1[nH]c1nc(Oc3cnc(C)nc3)nc(N3CC/C(=C(/F)CN)C3)c12 .
Response: 0.125 µg/mL

---

- Test system: Pseudomonas aeruginosa
- protocol details: Antibacterial activity against multidrug resistant Pseudomonas aeruginosa strains 15 1 to 3 assessed as reduction in bacterial growth incubated for 18 to 20 hrs by CLSI based microdilution method
- Type: functional
- study conditions: time 18-20 hrs
reported metric: MIC (µg/mL)
Dear colleague, please return just the value in µg/mL, with no unit written.

{"compound": "CNc1cc(F)cc2c1[nH]c1nc(Oc3cnc(C)nc3)nc(N3CC4CCNC4C3)c12 (racemic)", "MIC / µg/mL": 0.5}
{"compound": "CNc1cc(F)cc2c1[nH]c1nc(Oc3cnc(C)nc3)nc(N3CC(=C(Br)CN)C3)c12", "MIC / µg/mL": 2}
{"compound": "CCC(CN)=C1CN(c2nc(Oc3cnc(C)nc3)nc3[nH]c4c(NC)cc(F)cc4c23)C1", "MIC / µg/mL": 0.5}
{"compound": "CNc1cc(F)cc2c1[nH]c1nc(Oc3cnc(C)nc3)nc(N3CC(=C(CN)C(C)C)C3)c12", "MIC / µg/mL": 1}
{"compound": "CNc1cc(F)cc2c1[nH]c1nc(Oc3cnc(C)nc3)nc(N3CC(=C(C)C(C)N)C3)c12 (racemic)", "MIC / µg/mL": 1}
{"compound": "CCC(CN)=C1CN(c2nc(C#N)nc3[nH]c4c(NC)cc(F)cc4c23)C1", "MIC / µg/mL": 16}

Prompt: Report value: MIC, system: Pseudomonas aeruginosa, compound: CNc1cc(F)cc2c1[nH]c1nc(Oc3cnc(C)nc3)nc(N3CC/C(=C(\F)CN)C3)c12
Response: 2

Prompt: Provide MIC, tested on Pseudomonas aeruginosa, for CCCC(CN)=C1CN(c2nc(Oc3cnc(C)nc3)nc3[nH]c4c(NC)cc(F)cc4c23)C1 .
Response: 2

---

- assay system: hERG (KCNH2) potassium channel (Homo sapiens, UniProt Q12809)
- Sequence (Q12809 whole entry): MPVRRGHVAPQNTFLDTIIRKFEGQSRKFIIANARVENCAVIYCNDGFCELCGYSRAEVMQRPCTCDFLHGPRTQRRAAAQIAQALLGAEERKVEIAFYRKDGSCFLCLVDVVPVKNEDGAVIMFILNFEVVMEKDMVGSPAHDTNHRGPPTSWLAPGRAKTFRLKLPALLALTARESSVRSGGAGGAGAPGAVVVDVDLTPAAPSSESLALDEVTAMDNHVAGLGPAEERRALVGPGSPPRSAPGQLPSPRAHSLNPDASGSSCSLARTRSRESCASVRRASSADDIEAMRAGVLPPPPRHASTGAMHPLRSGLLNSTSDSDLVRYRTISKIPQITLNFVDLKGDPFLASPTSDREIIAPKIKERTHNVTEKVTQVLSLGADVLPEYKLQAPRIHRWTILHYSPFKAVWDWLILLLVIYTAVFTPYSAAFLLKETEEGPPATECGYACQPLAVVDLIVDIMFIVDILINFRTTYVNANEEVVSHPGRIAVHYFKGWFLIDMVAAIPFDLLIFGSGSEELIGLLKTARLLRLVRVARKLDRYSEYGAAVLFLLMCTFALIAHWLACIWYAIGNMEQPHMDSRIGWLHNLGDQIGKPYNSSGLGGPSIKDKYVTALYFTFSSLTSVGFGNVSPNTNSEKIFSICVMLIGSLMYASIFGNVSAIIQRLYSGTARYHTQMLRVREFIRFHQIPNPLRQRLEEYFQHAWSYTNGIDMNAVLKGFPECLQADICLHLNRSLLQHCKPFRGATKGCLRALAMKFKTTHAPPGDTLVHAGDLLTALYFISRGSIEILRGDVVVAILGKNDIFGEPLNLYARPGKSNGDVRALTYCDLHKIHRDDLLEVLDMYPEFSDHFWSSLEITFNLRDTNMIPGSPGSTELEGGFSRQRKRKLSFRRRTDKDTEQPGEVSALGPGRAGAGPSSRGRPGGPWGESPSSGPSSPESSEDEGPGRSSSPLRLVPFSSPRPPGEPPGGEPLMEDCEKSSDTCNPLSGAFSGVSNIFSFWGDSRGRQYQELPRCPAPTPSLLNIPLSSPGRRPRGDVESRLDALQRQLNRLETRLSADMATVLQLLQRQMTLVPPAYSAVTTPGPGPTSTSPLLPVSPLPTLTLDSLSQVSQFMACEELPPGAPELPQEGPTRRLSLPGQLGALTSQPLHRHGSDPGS
- protocol details: Inhibition of hERG potassium channel assessed as maximum inhibition rate at 40 uM at -80 mV holding potential incubated for 120 seconds by whole cell-automated voltage clamp analysis assay relative to control
- Format: toxicity
- study conditions: time 120 sec
reported metric: inhibition at 2 min, 40 µM (%)
Please state the figure in %; there is no need to write the unit.

Check out these entries, answers already filled in.
{"compound": "CNc1cc(F)cc2c1[nH]c1nc(Oc3cnc(C)nc3)nc(N3CC4CCNC4C3)c12 (racemic)", "assay system": "hERG (KCNH2) potassium channel (Homo sapiens, UniProt Q12809)", "inhibition at 2 min, 40 µM [%]": 70.5}
{"compound": "CCC(CN)=C1CN(c2nc(Oc3cnc(C)nc3)nc3[nH]c4c(NC)cc(F)cc4c23)C1", "assay system": "hERG (KCNH2) potassium channel (Homo sapiens, UniProt Q12809)", "inhibition at 2 min, 40 µM [%]": 41.1}
{"compound": "C=CCC(CN)=C1CN(c2nc(Oc3cnc(C)nc3)nc3[nH]c4c(NC)cc(F)cc4c23)C1", "assay system": "hERG (KCNH2) potassium channel (Homo sapiens, UniProt Q12809)", "inhibition at 2 min, 40 µM [%]": 49.1}
{"compound": "CCC(CN)=C1CN(c2nc(Oc3cnc(CO)nc3)nc3[nH]c4c(NC)cc(F)cc4c23)C1", "assay system": "hERG (KCNH2) potassium channel (Homo sapiens, UniProt Q12809)", "inhibition at 2 min, 40 µM [%]": 30.9}
{"compound": "CNc1cc(F)cc2c1[nH]c1nc(Oc3cnc(C)nc3)nc(N3CC/C(=C(\\F)CN)C3)c12", "assay system": "hERG (KCNH2) potassium channel (Homo sapiens, UniProt Q12809)", "inhibition at 2 min, 40 µM [%]": 41.6}
{"compound": "CNc1cc(F)cc2c1[nH]c1nc(Oc3cnc(C)nc3)nc(N3CC(=C(C)CN)C3)c12", "assay system": "hERG (KCNH2) potassium channel (Homo sapiens, UniProt Q12809)", "inhibition at 2 min, 40 µM [%]": 4.8}

Prompt: Specify reported inhibition at 2 min, 40 µM for the compound shown: CNc1cc(F)cc2c1[nH]c1nc(Oc3cnc(C)nc3)nc(N3CC(=C(C)[C@@H](C)N)C3)c12
Response: 18.3

Prompt: // fetch inhibition at 2 min, 40 µM given entry CNc1cc(F)cc2c1[nH]c1nc(Oc3cnc(C)nc3)nc(N3CC(=CC(C)N)C3)c12 (centres undefined)
Response: 32.3

Prompt: Given the compound CNc1cc(F)cc2c1[nH]c1nc(Oc3cnc(C)nc3)nc(N3CCC(=C(F)CN)CC3)c12 , write its reported inhibition at 2 min, 40 µM.
Response: 70.4

---

- protocol details: MRT in Sprague-Dawley rat at 4 mg/kg, iv measured upto 24 hrs by LC-MS/MS analysis
- Format: ADME, organism-based
- study conditions: in vivo
So basically: MRT at 4 h or higher? That is True. Lower than 4 h? That is False.

Below are worked cases with known answers.
{"compound": "CCCC(CN)=C1CN(c2nc(Oc3cnc(C)nc3)nc3[nH]c4c(NC)cc(F)cc4c23)C1", "category": "True"}
{"compound": "CNc1cc(F)cc2c1[nH]c1nc(Oc3cnc(C)nc3)nc(N3CC(=CC(C)N)C3)c12 (stereo unspecified)", "category": "True"}
{"compound": "CCC(CN)=C1CN(c2nc(Oc3cnc(C)nc3)nc3[nH]c4c(NC)cc(F)cc4c23)C1", "category": "False"}
{"compound": "CCC(CO)=C1CN(c2nc(Oc3cnc(C)nc3)nc3[nH]c4c(NC)cc(F)c(F)c4c23)C1", "category": "True"}
{"compound": "CCC(CN)=C1CN(c2nc(Oc3cnc(C(C)O)nc3)nc3[nH]c4c(NC)cc(F)cc4c23)C1 (stereo unspecified)", "category": "False"}

Switching to the query record.
Prompt: Given CNc1cc(F)cc2c1[nH]c1nc(Oc3cnc(C)nc3)nc(N3CC(=C(C)C(C)N)C3)c12 (racemic) , state whether its MRT is at least 4 h.
Response: True
